# MEASUREMENT_TARGET: T1, WT H3.3 26-35 peptide/HLA-A*02:01 complex on T2 cells (human)
# T1 construct: whole, on cells; T2 cells pulsed with the synthetic peptide; also called T2-WT H3.3; T2-WT 3.3
# EXPERIMENT_SUMMARY: flow cytometry, scFv phage on T2 cells, anti-M13 + PE anti-mouse IgG
READOUT_NAME: Median MFI (PE-A) (MFI)
Write it as a number; the unit MFI goes unstated.

Worked examples, 2 binders total:
Phage clone 13 (scFv, fusion to the phage coat protein not described) scFv: DVVMTQSPLSLPVTLGQPASISCRSSQSLIYSNGNTYLTWFHQRPGQPPRRLIHKVSNRDSGVPDRFSGSGSGSDFTLKISRVEAEDVGIYYCMQGTHWPPTFGGGTKLEIKRSRGGGGSGGGGSGGGGSLEMAEVQLVQSGAEVKKPGESLKISCKGSGYSFTSYWIGWVRQMPGKGLEWMGIIYPGDSDTRYSPSFQGQVTISADKSISTAYLQWSSLKASDTAMYYCARGYDVWGQGTLVTVSS :: 784
Phage clone 16 (scFv, fusion to the phage coat protein not described) scFv: DVVMTQSPLSLPVTLGQPASISCRSSQSLIYSNGNTYLTWFHQRPGQPPRRLIHKVSNRDSGVPDRFSGSGSGSDFTLKISRVEAEDVGIYYCMQGTHWPPTFGGGTKLEIKRSRGGGGSGGGGSGGGGSLEMAEVQLVQSGAEVKKPGESLKISCKGSGYSFTSYWIGWVRQMPGKGLEWMGIIYPGDSDTRYSPSFQGQVTISADKSISTAYLQWSSLKASDTAMYYCARGYDSWGQGTLVTVSS :: 2440

## Task Item under review: Phage clone 5 (scFv, fusion to the phage coat protein not described; also called anti-HMC scFv 5) scFv: DVVMTQSPLSLPVTLGQPASISCRSSQSLVYSNGNTYLNWFHQRPGQSPRRLIYEVSNRDSGVPDRFSGSGSGTDFTLKISRVEAEDVGVYYCMQGTHWPPTFGGGTKLEIKRSRGGGGSGGGGSGGGGSLEMAEVQLVQSGAEVKKPGESLKISCKGSGYSFTSYWIGWVRQMPGKGLEWMGIIYPGDSDTRYSPSFQGQVTISADKSISTAYLQWSSLKASDTAMYYCARGYDGWGQGTLVTVSS . Reported Median MFI (PE-A)?
## Result 305
